Molecular target: T1, HLA-B*07:02 (human)
T1 construct: Peptide-receptive monomer in the UV-ligand exchange assay
Test: UV peptide exchange, anti-b2m ELISA; exchange yield grade
Consider the following binders and their measured peptide exchange yield readings.

[[record]]
binder = "SPVSASWIL"
assay_value = "≥ 75%"


Problem: Look up peptide exchange yield for this binder: AVDLGVLEL
Solution: 50 to 75%

Problem: Entry under review: MPFLKVPPL . Reported peptide exchange yield?
Solution: ≥ 75%

Problem: Name the reported peptide exchange yield value associated with the binder SPSSNSREL
Solution: 50 to 75%

Measured values drawn from patent US20240358755A1 for this set.
